biological target: human AMPK α1β1γ1 enzyme (Homo sapiens, UniProt Q13131+Q9Y478); construct: purchased Carna Biosciences, Inc; assay: AMPK activator evaluation, Test Example 1 (mobility shift, FL-Peptide 7); assay type: biochemical; conditions: human AMPK α1β1γ1, control without compound = 100%; read-out: Emax (maximum rate of increase in activity within the measurement range)
Sequence (Q13131 10-559 limits assumed): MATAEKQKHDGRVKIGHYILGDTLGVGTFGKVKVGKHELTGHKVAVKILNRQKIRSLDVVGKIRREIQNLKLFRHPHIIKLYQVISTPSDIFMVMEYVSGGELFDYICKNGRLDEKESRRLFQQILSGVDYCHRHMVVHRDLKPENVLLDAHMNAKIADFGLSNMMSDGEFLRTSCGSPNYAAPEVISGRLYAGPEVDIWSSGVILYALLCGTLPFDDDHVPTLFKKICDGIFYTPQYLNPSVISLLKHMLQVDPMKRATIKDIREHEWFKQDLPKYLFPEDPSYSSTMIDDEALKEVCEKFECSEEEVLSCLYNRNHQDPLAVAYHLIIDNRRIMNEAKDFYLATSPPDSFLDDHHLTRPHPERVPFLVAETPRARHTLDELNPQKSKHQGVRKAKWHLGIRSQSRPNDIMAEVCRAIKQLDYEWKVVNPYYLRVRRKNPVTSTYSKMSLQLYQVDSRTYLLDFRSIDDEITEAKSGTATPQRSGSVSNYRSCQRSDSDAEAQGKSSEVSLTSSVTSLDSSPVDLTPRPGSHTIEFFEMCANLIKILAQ
Sequence (Q9Y478 whole entry): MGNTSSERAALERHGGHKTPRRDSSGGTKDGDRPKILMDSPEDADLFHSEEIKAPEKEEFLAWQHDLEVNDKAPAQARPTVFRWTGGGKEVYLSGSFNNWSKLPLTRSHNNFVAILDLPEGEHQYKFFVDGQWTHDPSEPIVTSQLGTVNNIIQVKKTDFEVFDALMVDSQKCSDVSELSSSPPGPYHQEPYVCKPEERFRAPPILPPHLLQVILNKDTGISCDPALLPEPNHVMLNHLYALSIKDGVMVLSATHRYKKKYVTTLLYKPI
Sequence (P54619 whole entry partner): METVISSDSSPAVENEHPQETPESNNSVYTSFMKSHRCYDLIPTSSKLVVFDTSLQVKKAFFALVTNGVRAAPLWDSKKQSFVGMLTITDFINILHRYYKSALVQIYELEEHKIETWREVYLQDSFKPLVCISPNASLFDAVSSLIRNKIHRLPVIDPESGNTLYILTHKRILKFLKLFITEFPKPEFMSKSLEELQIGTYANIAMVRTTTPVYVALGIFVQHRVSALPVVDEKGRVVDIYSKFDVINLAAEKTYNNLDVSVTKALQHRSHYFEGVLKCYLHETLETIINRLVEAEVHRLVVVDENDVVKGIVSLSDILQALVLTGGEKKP
assay.endpoint: Emax (%)
Number only, in %; omit the unit.

// below: answered compounds
INSERT INTO results (structure, target_or_system, assay_endpoint, measured) VALUES
  ('CC(C)(C(N)=O)c1ccc(Oc2nc3nc(-c4ccc(C5(CO)CC5)cc4)c(Cl)cc3[nH]2)cc1', 'human AMPK α1β1γ1 enzyme (Homo sapiens, UniProt Q13131+Q9Y478)', 'Emax', 198),
  ('CC(=O)NC(C)(C)c1ccc(Oc2nc3nc(-c4ccc(C5=CCOCC5)cc4)c(Cl)cc3[nH]2)cn1', 'human AMPK α1β1γ1 enzyme (Homo sapiens, UniProt Q13131+Q9Y478)', 'Emax', 214);

### Prompt Query (compound): `Cc1ccc(Oc2nc3nc(-c4ccc(CO)cc4)c(Cl)cc3[nH]2)cc1C(=O)O` ; field requested: Emax
### Response 311

### Prompt What value of measured Emax is listed for `O=C(O)C1(c2ccc(Oc3nc4nc(-c5ccc(N6CCCC6)cc5)c(Cl)cc4[nH]3)cc2)CC1` ?
### Response 352

====

molecular target: human AMPK α1β1γ1 enzyme (Homo sapiens, UniProt Q13131+Q9Y478); construct: purchased Carna Biosciences, Inc; test: AMPK activator evaluation, Test Example 1 (mobility shift, FL-Peptide 7); assay type: biochemical; conditions: human AMPK α1β1γ1, control without compound = 100%
Each entry falls in a class defined on EC150 (compound concentration showing 150% relative to the control); the bands are low end: < 30 nM; middle: ≥ 30 nM and < 200 nM; high end: ≥ 200 nM

INSERT INTO measurements (compound, class) VALUES
  ('Cc1ccc(C(=O)O)cc1Oc1nc2nc(-c3ccc(N4CCOCC4)cc3)c(Cl)cc2[nH]1 [Compound B-108]', 'low end'),
  ('CCc1ccc(Oc2nc3nc(-c4ccc(N5CCOCC5)cc4)c(Cl)cc3[nH]2)cn1 [Compound C-89]', 'high end'),
  ('CC(=O)NC(C)(C)c1ccc(Oc2nc3nc(-c4ccc(OCCO)cc4)c(Cl)cc3[nH]2)cc1 [Compound D-16]', 'low end');

### Prompt Just checking, what class would you give CN1CCc2cc(-c3nc4nc(Oc5ccc(C(C)(C)C(N)=O)cc5)[nH]c4cc3Cl)ccc21 [Compound D-3] here?
### Response high end

### Prompt Which class holds OCCc1ccc(Oc2nc3nc(-c4ccc(N5CCOCC5)cc4)c(Cl)cc3[nH]2)cc1 [Compound B-137] ?
### Response low end

### Prompt Returns: class label. Input: COc1ccc(-c2ccc(-c3nc4nc(Oc5ccc(C)c(C(=O)O)c5)[nH]c4cc3Cl)cc2)cc1 [Compound C-29]
### Response low end

### Prompt Classify this compound: Cc1ccc(Oc2nc3nc(-c4ccc(N5CCOCC5)cc4)ncc3[nH]2)cc1C(=O)O [Compound B-7]
### Response high end

### Prompt Assign a bin to COc1ccc(Oc2nc3nc(-c4ccc(N5CCOCC5)cc4)c(Cl)cc3[nH]2)cn1 [Compound C-100]
### Response high end

### Prompt Lab note: sort Cc1ccc(Oc2nc3cc(-c4ccc5c(ccn5C)c4)ccc3[nH]2)cc1C(=O)O [Compound B-5] into the matching EC150 (compound concentration showing 150% relative to the control) band.
### Response high end

### Prompt Tag the class for O=C(O)/C=C/c1cccc(Oc2nc3nc(-c4ccc(N5CCOCC5)cc4)c(Cl)cc3[nH]2)c1 [Compound B-109]
### Response middle

====

biological target: human AMPK α1β1γ1 enzyme (Homo sapiens, UniProt Q13131+Q9Y478); construct: purchased Carna Biosciences, Inc; experiment: AMPK activator evaluation, Test Example 1 (mobility shift, FL-Peptide 7); type: biochemical; conditions: human AMPK α1β1γ1, control without compound = 100%; read-out: Emax (maximum rate of increase in activity within the measurement range)
Please mark Satisfied if the recorded Emax is equal to or greater than 300%, and Not satisfied if it falls below.

Observe how each entry below is paired with its result.
INSERT INTO assay_data (compound, target_or_system, class) VALUES
  ('CONC(=O)C(C)(C)c1ccc(Oc2nc3nc(-c4ccc(N5CCOCC5)cc4)c(Cl)cc3[nH]2)cn1 [Compound D-102]', 'human AMPK α1β1γ1 enzyme (Homo sapiens, UniProt Q13131+Q9Y478)', 'Not satisfied'),
  ('O=C(O)c1cc(Oc2nc3nc(-c4ccc(N5CCOCC5)cc4)c(Cl)cc3[nH]2)ccc1Cl [Compound C-32]', 'human AMPK α1β1γ1 enzyme (Homo sapiens, UniProt Q13131+Q9Y478)', 'Not satisfied'),
  ('O=C(O)/C=C/c1cccc(Oc2nc3nc(-c4ccc(N5CCOCC5)cc4)c(Cl)cc3[nH]2)c1 [Compound B-109]', 'human AMPK α1β1γ1 enzyme (Homo sapiens, UniProt Q13131+Q9Y478)', 'Satisfied');

### Prompt # check: Emax of Cc1ccc(Oc2nc3nc(-c4ccc(C(C)(C)O)cc4)c(Cl)cc3[nH]2)cc1C(=O)O [Compound C-63] is greater than or equal to 300%
### Response Satisfied

### Prompt Could you tell me if the measured Emax of CC(=O)NC(C)(C)c1ccc(Oc2nc3nc(-c4ccc(-c5ccccc5O)cc4)c(Cl)cc3[nH]2)cc1 [Compound D-39] reaches 300% or more?
### Response Satisfied

### Prompt Please indicate if the recorded Emax for Cc1ccc(Oc2nc3nc(-c4ccc(N5CCOCC5)cc4)c(Cl)cc3[nH]2)cn1 [Compound B-119] meets or exceeds 300%.
### Response Not satisfied

### Prompt Quick check: does Cc1ccc(Oc2nc3nc(-c4ccc5c(ccn5C)c4)c(Cl)cc3[nH]2)cc1C(=O)O [Compound A-2] have Emax greater than or equal to 300%?
### Response Satisfied

====

# Emax per record follows
target: human AMPK α1β1γ1 enzyme (Homo sapiens, UniProt Q13131+Q9Y478); construct: purchased Carna Biosciences, Inc; test: AMPK activator evaluation, Test Example 1 (mobility shift, FL-Peptide 7); assay type: biochemical; conditions: human AMPK α1β1γ1, control without compound = 100%; read-out: Emax (maximum rate of increase in activity within the measurement range)
Param answer (str): number followed by unit.

Below: 4 molecules and their reported Emax.
INSERT INTO results (structure, measured) VALUES
  ('CC(=O)NC(C)(C)c1ccc(Oc2nc3nc(-c4ccc(N5CCOCC5)cc4)c(Cl)cc3[nH]2)cc1', '237%'),
  ('CC(C)(C(=O)NCCO)c1ccc(Oc2nc3nc(-c4ccc(N5CCOCC5)cc4)c(Cl)cc3[nH]2)cc1', '232%'),
  ('CNCC(C)(C)c1ccc(Oc2nc3nc(-c4ccc(N5CCOCC5)cc4)c(Cl)cc3[nH]2)cc1', '159%'),
  ('CC(C)(C(N)=O)c1ccc(Oc2nc3nc(-c4ccc(N5CCOCC5)cc4)c(Cl)cc3[nH]2)cc1F', '226%');

Please look at the following molecule next.
### Prompt Need Emax, item `CC(=O)NC(C)(C)c1ccc(Oc2nc3nc(-c4ccc(N5CCOCC5)cc4)c(Cl)cc3[nH]2)cc1F`
### Response 244%

====

Target: human AMPK α1β1γ1 enzyme (Homo sapiens, UniProt Q13131+Q9Y478)
Construct: purchased Carna Biosciences, Inc
Experiment: AMPK activator evaluation, Test Example 1 (mobility shift, FL-Peptide 7)
Format: biochemical
Conditions: human AMPK α1β1γ1, control without compound = 100%
Description: […] To detect phosphorylated fluorescent substrates, the reaction liquid was applied to a measuring device, LabChip EZ Reader II manufactured by Caliper Life Science, Inc., for detecting fluorescence by using differences in mobility due to differences in charge. […]
We use 200 nM as the dividing line for EC150 (compound concentration showing 150% relative to the control): on or above the line is Fulfilled, below is Not fulfilled.

INSERT INTO assay_data (structure, class) VALUES
  ('CC(C)(C(=O)O)c1ccc(Oc2nc3nc(-c4ccc(N5CCOCC5)cc4)c(Cl)cc3[nH]2)cc1', 'Fulfilled'),
  ('Cc1ccc(Oc2nc3nc(-c4ccc(C(C)(C)O)cc4)c(Cl)cc3[nH]2)cc1C(=O)O', 'Not fulfilled'),
  ('CC(C)(C(=O)NCCO)c1ccc(Oc2nc3nc(-c4ccc(N5CCOCC5)cc4)c(Cl)cc3[nH]2)cn1', 'Fulfilled');

### Prompt Confirm if EC150 (compound concentration showing 150% relative to the control) reported for the compound `CONC(=O)C(C)(C)c1ccc(Oc2nc3nc(-c4ccc(N5CCOCC5)cc4)c(Cl)cc3[nH]2)cn1` is 200 nM or above.
### Response Fulfilled

### Prompt Hello, I need to know if `COC(=O)NC(C)(C)c1ccc(Oc2nc3nc(-c4ccc(N5CCOCC5)cc4)c(Cl)cc3[nH]2)cn1` has measured EC150 (compound concentration showing 150% relative to the control) not below 200 nM. Thanks!
### Response Not fulfilled

### Prompt Reported EC150 (compound concentration showing 150% relative to the control) at or above 200 nM? `CNCC(C)(C)c1ccc(Oc2nc3nc(-c4ccc(N5CCOCC5)cc4)c(Cl)cc3[nH]2)cc1`
### Response Fulfilled

### Prompt Item `CC(=O)NC(C)(C)c1ccc(Oc2nc3nc(-c4ccc(C5CCOCC5)cc4)c(Cl)cc3[nH]2)cc1` with EC150 (compound concentration showing 150% relative to the control) of 200 nM or above?
### Response Not fulfilled
